Numbers sourced from ChEMBL document CHEMBL4145593.

assay_protocol: Tmax in Wistar Han rat at 50 mg/kg, po
Assay type: ADME, organism-based
experimental_parameters: in vivo
measured_parameter: Tmax
Give the number first and the unit second.

Notebook: Cc1[nH]c2c(N3CCO[C@H](CO)C3)c(C#N)c(C(F)(F)F)nc2c1Cl , Tmax read as 1 h

* * *

assay_protocol: AUC (0 to 24 hrs) in C57BL6 mouse at 5 mg/kg, po
Format: ADME, organism-based
Set-up: dose 5 mg/kg, time < 24 hr, route oral
experimental_parameters: in vivo
measured_parameter: AUC(0-t) at 24 h

Notebook: Cc1[nH]c2c(N3CCO[C@H](CO)C3)c(C#N)c(C(F)(F)F)nc2c1Cl , AUC(0-t) at 24 h read as 1000 ng·h/mL
